Source: ChEMBL document CHEMBL1123666

Emax values, listed per item
Target: Adrenergic receptor alpha-1 (Homo sapiens) (UniProt P35348+P25100+P35368)
Assay: In vitro alpha 1 adrenergic activity using isolated rabbit aorta expressed as percent maximum response of the tissue to norepinephrine.
Format: functional, tissue-based
Settings: Oryctolagus cuniculus
Please state the value as a number alone, without comment.

# example entries with known answers
1. NCC1OCc2c1ccc(O)c2O (stereo unspecified)
107
2. CNCC1OCc2c1ccc(O)c2O (stereo unspecified)
126

q: Look up Emax: NCC1CCc2c1ccc(O)c2O (stereo unspecified)
a: 102

q: Look up Emax: CNCC1CCc2c1ccc(O)c2O (stereo unspecified)
a: 109

q: Look up Emax: CN(C)CC1OCc2c1ccc(O)c2O (stereo unspecified)
a: 114

q: Look up Emax: CN(C)CC1CCc2c1ccc(O)c2O (stereo unspecified)
a: 105

---

Emax values, listed per item
Target: Adrenergic receptor alpha-2 (Homo sapiens) (UniProt P08913+P18825+P18089)
Assay: In vitro alpha 2 adrenergic activity uin phenozybenzamine pretreated dog saphenous vein expressed as percent maximum response of the tissue to norepinephrine.
Assay type: functional, tissue-based
Conditions: Canis lupus familiaris
Please state the value as a number alone, without comment.

# example entries with known answers
1) CN(C)CC1OCc2c1ccc(O)c2O (stereo unspecified)
107
2) NCC1OCc2c1ccc(O)c2O (stereo unspecified)
90
3) CNCC1OCc2c1ccc(O)c2O (stereo unspecified)
94

q: Look up Emax: NCC1CCc2c1ccc(O)c2O (stereo unspecified)
a: 91

q: Look up Emax: CNCC1CCc2c1ccc(O)c2O (stereo unspecified)
a: 81

q: Look up Emax: CN(C)CC1CCc2c1ccc(O)c2O (stereo unspecified)
a: 101

---

Target: Adrenergic receptor alpha (Homo sapiens) (UniProt P35348+P08913+P18825+P25100+P35368+P18089)
Assay: In vitro alpha-2 selectivity which is the measure of Ratio of Ki of alpha-1 adrenoceptor to Ki of alpha-2 adrenoceptor
Assay type: protein assay
READOUT: Ratio

1. CN(C)CC1OCc2c1ccc(O)c2O (stereo unspecified)
4
2. CNCC1OCc2c1ccc(O)c2O (stereo unspecified)
5.3
3. CN(C)CC1CCc2c1ccc(O)c2O (stereo unspecified)
7.6
4. NCC1CCc2c1ccc(O)c2O (stereo unspecified)
209
5. CNCC1CCc2c1ccc(O)c2O (stereo unspecified)
110

# input for lookup
q: Look up Ratio: NCC1OCc2c1ccc(O)c2O (stereo unspecified)
a: 36.3

---

Ki values, listed per item
Biological target: Adrenergic receptor alpha-1 (Homo sapiens, UniProt P35348+P25100+P35368)
Sequence (P35348 whole entry): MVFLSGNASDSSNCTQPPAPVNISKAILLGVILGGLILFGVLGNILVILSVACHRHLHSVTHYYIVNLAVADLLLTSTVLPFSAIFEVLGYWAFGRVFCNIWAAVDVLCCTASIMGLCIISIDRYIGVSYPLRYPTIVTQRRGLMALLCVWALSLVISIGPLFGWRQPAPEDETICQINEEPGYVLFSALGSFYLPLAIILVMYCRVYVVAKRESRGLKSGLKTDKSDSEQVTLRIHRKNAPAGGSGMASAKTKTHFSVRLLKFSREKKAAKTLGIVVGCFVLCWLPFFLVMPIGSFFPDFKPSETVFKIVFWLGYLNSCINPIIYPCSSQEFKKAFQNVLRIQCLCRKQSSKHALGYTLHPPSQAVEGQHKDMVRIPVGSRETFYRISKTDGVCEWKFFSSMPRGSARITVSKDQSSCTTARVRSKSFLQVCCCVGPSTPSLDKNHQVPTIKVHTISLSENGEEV
Sequence (P25100 whole entry): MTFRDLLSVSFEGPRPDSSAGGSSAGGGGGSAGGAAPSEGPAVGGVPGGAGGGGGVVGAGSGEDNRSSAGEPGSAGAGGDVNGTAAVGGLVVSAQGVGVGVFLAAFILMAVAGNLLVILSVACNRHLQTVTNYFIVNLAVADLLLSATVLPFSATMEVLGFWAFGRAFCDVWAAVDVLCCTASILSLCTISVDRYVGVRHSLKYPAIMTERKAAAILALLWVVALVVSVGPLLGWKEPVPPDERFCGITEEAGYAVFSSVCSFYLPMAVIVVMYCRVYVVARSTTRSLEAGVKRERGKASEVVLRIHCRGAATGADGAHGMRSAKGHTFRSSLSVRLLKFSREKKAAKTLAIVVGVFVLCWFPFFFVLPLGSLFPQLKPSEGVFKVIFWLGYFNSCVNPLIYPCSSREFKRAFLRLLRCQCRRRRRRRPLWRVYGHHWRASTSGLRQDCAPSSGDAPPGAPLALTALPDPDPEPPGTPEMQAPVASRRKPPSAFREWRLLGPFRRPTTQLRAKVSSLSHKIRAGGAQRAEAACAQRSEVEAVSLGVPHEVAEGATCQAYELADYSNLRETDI
Sequence (P35368 whole entry): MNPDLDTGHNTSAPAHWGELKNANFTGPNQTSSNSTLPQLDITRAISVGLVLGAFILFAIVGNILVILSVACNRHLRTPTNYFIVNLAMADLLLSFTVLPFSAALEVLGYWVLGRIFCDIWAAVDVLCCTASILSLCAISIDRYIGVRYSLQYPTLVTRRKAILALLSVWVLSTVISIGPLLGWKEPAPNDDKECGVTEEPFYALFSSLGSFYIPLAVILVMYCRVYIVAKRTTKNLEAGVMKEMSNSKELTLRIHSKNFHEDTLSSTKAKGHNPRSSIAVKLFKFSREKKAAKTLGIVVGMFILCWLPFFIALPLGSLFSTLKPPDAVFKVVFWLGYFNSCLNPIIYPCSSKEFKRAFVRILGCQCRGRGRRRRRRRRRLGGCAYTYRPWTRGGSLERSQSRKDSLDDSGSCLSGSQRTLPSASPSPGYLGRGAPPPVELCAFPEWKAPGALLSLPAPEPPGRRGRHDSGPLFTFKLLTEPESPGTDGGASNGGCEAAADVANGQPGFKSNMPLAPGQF
Assay: Binding affinity towards alpha 1 adrenergic receptor
Assay type: protein assay, Oryctolagus cuniculus
Express it in µM; write the number only.

# example entries with known answers
1) CNCC1OCc2c1ccc(O)c2O (stereo not given)
1.97
2) CN(C)CC1OCc2c1ccc(O)c2O (stereo not given)
1.16
3) NCC1OCc2c1ccc(O)c2O (stereo not given)
9.8
4) NCC1CCc2cc(O)c(O)cc21 (stereo not given)
26
5) CCCN(CCC)CC1CCc2c1ccc(O)c2O (stereo not given)
7.4
6) CCCN(CCC)CC1OCc2c1ccc(O)c2O (stereo not given)
10.3

q: Look up Ki: CN(C)CC1CCc2c1ccc(O)c2O (stereo not given)
a: 6.9

q: Look up Ki: NCC1CCc2c1ccc(O)c2O (stereo not given)
a: 2.25

q: Look up Ki: NCC1OCc2cc(O)c(O)cc21 (stereo not given)
a: 99

q: Look up Ki: CNCC1CCc2c1ccc(O)c2O (stereo not given)
a: 2
